The following binders are listed with their measured EC50 values.
- System tested: T1, human CD3 complex on Jurkat cells (human, UniProt P07766 23-207; P04234 22-171; P09693 23-182)
- T1 construct: whole, on cells; natural CD3 complex of Jurkat T cells (also used here for CD3 on T cells of human PBMC); also called human CD3 at the cell level; CD3 on T cells
- T1 sequence (P07766 23-207, chain 1 of 3): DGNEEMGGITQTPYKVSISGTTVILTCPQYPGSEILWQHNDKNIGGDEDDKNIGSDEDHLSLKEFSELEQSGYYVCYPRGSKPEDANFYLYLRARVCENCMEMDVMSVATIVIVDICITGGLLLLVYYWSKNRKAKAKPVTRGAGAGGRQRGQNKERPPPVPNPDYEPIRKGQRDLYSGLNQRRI
- T1 sequence (P04234 22-171, chain 2 of 3): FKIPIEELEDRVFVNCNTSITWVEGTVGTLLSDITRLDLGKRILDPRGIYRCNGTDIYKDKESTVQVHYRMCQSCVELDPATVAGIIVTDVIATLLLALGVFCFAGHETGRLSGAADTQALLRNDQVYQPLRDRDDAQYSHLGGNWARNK
- T1 sequence (P09693 23-182, chain 3 of 3): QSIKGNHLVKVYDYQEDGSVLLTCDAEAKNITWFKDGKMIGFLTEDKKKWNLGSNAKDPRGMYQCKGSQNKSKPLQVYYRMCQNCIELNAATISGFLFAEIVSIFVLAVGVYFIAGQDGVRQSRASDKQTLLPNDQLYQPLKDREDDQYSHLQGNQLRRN
- Test: flow cytometry on Jurkat cells (human CD3 complex), 'Jurkat cell line binding', Example 3.2 [cont) D]
The figure you give is taken to be in nM; do not add the unit.

| Binder | EC50 / nM |
| --- | --- |
| hzsp34.24 (antibody, human IgG1, lambda, L234A L235A, V domains shown, IgG1 L234A L235A, lambda; parent of the CDR mutants) VH: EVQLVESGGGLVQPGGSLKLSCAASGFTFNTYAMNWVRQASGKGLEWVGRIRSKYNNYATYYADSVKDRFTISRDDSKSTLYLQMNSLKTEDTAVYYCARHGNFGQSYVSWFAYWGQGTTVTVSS VL: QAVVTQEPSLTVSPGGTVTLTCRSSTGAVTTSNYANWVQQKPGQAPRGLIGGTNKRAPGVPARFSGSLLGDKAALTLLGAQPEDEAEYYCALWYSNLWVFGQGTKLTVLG | 1.25 |
| hzsp34.42 (antibody, human IgG1, kappa, L234A L235A, V domains shown, IgG1 L234A L235A, kappa) VH: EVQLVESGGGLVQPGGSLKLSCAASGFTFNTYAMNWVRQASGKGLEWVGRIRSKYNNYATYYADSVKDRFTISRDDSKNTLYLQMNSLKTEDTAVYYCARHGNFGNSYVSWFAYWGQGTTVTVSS VL: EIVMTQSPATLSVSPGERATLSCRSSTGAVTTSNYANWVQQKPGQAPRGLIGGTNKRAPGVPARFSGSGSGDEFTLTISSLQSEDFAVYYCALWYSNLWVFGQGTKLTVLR | 39.2 |

In the following, a different binder is considered.
# EC50 (binder: sp34 (antibody, human IgG1, lambda, L234A L235A, V domains shown, mouse variable regions on human IgG1 L234A L235A and lambda constant regions; also called chimeric antibody sp34; mouse sp34) VH: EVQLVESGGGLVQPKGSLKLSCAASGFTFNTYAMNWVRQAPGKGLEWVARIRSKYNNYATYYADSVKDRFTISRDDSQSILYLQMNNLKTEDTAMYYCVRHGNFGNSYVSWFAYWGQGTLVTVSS VL: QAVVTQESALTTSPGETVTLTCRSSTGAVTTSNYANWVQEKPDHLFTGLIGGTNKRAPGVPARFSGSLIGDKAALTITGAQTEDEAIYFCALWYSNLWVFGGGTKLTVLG ) is 2
